Cited source: patent US10501734B2

Tested on: tRNA
Test: Aminoacylation assay (tRNA charging)
Assay type: biochemical
Settings: nsAA pAcF
# maps each entry to its Km
Please answer using a numeric value trailed by its unit.

pAcFRS.t1: pAcFRS variant R257G, SEQ ID NO: 3 (protein) MDEFEMIKRNTSEIISEEELREVLKKDEKSALIGFEPSGKIHLGHYLQIKKMIDLQNAGFDIIILLADLHAYLNQKGELDEIRKIGDYNKKVFEAMGLKAKYVYGSEFQLDKDYTLNVYRLALKTTLKRARRSMELIAREDENPKVAEVIYPIMQVNGCHYRGVDVAVGGMEQRKIHMLARELLPKKVVCIHNPVLTGLDGEGKMSSSKGNFIAVDDSPEEIRAKIKKAYCPAGVVEGNPIMEIAKYFLEYPLTIKGPEKFGGDLTVNSYEELESLFKNKELHPMRLKNAVAEELIKILEPIRKRL; 17 µM

### Prompt Please give the documented Km of pAcFRS.2: pAcFRS variant L65V, A167D, SEQ ID NO: 7 (protein) MDEFEMIKRNTSEIISEEELREVLKKDEKSALIGFEPSGKIHLGHYLQIKKMIDLQNAGFDIIIVLADLHAYLNQKGELDEIRKIGDYNKKVFEAMGLKAKYVYGSEFQLDKDYTLNVYRLALKTTLKRARRSMELIAREDENPKVAEVIYPIMQVNGCHYRGVDVDVGGMEQRKIHMLARELLPKKVVCIHNPVLTGLDGEGKMSSSKGNFIAVDDSPEEIRAKIKKAYCPAGVVEGNPIMEIAKYFLEYPLTIKRPEKFGGDLTVNSYEELESLFKNKELHPMRLKNAVAEELIKILEPIRKRL
### Response 31 µM

### Prompt Please give the documented Km of pAcFRS.t2: pAcFRS variant R257C, F261E, SEQ ID NO: 4 (protein) MDEFEMIKRNTSEIISEEELREVLKKDEKSALIGFEPSGKIHLGHYLQIKKMIDLQNAGFDIIILLADLHAYLNQKGELDEIRKIGDYNKKVFEAMGLKAKYVYGSEFQLDKDYTLNVYRLALKTTLKRARRSMELIAREDENPKVAEVIYPIMQVNGCHYRGVDVAVGGMEQRKIHMLARELLPKKVVCIHNPVLTGLDGEGKMSSSKGNFIAVDDSPEEIRAKIKKAYCPAGVVEGNPIMEIAKYFLEYPLTIKCPEKEGGDLTVNSYEELESLFKNKELHPMRLKNAVAEELIKILEPIRKRL
### Response 29 µM
